target: monkey GPC3-His protein (monkey); assay: ELISA, monkey GPC3-His coated; antibody 2.67 nM
Measured metric: OD450 nm
Give a plain numeric answer without units written out.

Solved entries (count: 2):
Binder | OD450 nm
hAb006LH3L1a (antibody, human IgG1, V domains shown) VH: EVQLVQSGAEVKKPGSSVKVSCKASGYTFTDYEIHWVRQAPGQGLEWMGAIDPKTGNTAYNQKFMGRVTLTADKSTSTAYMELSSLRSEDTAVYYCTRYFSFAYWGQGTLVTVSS VL: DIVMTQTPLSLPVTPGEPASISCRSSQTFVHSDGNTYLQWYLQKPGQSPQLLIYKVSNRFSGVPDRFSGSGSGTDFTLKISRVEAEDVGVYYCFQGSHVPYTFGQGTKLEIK | 1.95
hAb007LH1L1 (antibody, human IgG1, V domains shown) VH: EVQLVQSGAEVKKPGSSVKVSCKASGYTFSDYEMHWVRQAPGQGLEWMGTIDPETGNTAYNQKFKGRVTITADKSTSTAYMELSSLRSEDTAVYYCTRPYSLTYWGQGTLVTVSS VL: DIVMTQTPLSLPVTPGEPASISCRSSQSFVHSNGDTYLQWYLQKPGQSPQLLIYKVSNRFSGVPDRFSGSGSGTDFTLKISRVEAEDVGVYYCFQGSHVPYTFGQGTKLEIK | 2.6

Please turn your attention to the following entry.
Please fill in: OD450 nm reported for hAb006LH2L1b (antibody, human IgG1, V domains shown) VH: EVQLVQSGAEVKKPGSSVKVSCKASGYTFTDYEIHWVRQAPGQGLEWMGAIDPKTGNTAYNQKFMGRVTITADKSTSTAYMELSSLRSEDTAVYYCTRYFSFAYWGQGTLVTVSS VL: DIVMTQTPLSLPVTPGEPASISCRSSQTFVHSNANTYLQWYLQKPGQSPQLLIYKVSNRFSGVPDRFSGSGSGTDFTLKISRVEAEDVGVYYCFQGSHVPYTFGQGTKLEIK = 2.7
